B1: SMARCE1 (parent)
chain: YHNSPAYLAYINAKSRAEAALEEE

variants of: B1; experiment: protein stability index of a GFP-peptide fusion (GPS, HEK-293T) (PSI 1-6); higher = more stable; conditions: c terminus: a fixed tail appended;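 note: lentivirally expressed fusions sorted by FACS into six bins by GFP to DsRed ratio, PSI derived from sequencing read proportions per bin multiplied by bin number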
Consider the following variants; for each one, report its protein stability index.
Give bare numbers.

// solved cases for protein stability index follow
# variant.annotation, protein stability index
measured = [
    ("Y7V", 2.91),
    ("P5T", 2.46),
    ("A20M", 1.32),
    ("E23G", 3.34),
    ("N3C", 1.34),
]

Return reported protein stability index values for all items listed beneath this line.
1. Y10E
2. L8I
3. E18Q
4. A6S
5. N3T
6. A9M
7. Y10N
8. K14E

A)
1: 2.94; 2: 3.09; 3: 1.51; 4: 2.43; 5: 2.19; 6: 1.38; 7: 2.05; 8: 2.03

Return reported protein stability index values for all items listed beneath this line.
1. S15G
2. L21C

A)
1: 2.11; 2: 2.89
